assay: Pharmacokinetic study in mice; format: in vivo, nude mice (nu/nu); conditions: female, nude (nu/nu), mouse; Plasma; Nu/nu; IV 35 mg/kg
measured attribute: half-life (min)
Give just the number in min; leave the unit off.

Challenge: Requested field: half-life. Item: COc1ccc(S(=O)(=O)N(Cc2ccc3c(c2)C=CC(C)(C)O3)c2ccccc2)cc1OC
Response given: 36

* * *

assay: Pharmacokinetic study in mice; assay type: in vivo, CD-1 mice; settings: female, mouse; Brain; CD-1; IP 35 mg/kg; read-out: Tmax
measured attribute: Tmax (h)
# unit: h | format: bare number

Challenge: Name the recorded Tmax for COc1ccc(S(=O)(=O)N(Cc2ccc3c(c2)C=CC(C)(C)O3)c2ccccc2)cc1OC .
Response given: 1
